format: in vitro ADME; details: human liver microsomes
So I've got a bunch of compounds here, and I need their Metabolic Stability H (% Rem.) values.
State just the number; it will be interpreted in % Rem..

Give the measured Metabolic Stability H (% Rem.) of C[S+]([O-])c1cccc(-c2ccc3nc(N)n(-c4ccc(C(F)(F)F)nc4)c(=O)c3c2)c1 (stereo not shown) . 93

And "Nc1nc2cc(-c3cccc(C(F)(F)F)c3)ccc2c(=O)n1-c1ccc(C(F)(F)F)cc1" ? 95

And "CNC(=O)c1cccc(-c2ccc3nc(N)n(-c4ccc(C(F)(F)F)cc4)c(=O)c3c2)c1" ? 98

And "Nc1nc2ccc(-c3cccc(C(=O)NCCO)c3)cc2c(=O)n1-c1ccc(C(F)(F)F)cc1" ? 81

And "Nc1nc2ccc(-c3cccc(C(=O)NCCN4CCOCC4)c3)cc2c(=O)n1-c1ccc(C(F)(F)F)cc1" ? 51

And "CNc1nc2ccc(-c3cccc(S(C)(=O)=O)c3)cc2c(=O)n1-c1ccc(C(F)(F)F)cc1" ? 98

====

assay: in vitro; settings: Chinese hamster
QUANTITY_KIND: IC50

Give the measured IC50 of "Nc1nc2ccc(-c3cccc(C(=O)NCCN4CCOCC4)c3)cc2c(=O)n1-c1ccc(C(F)(F)F)cc1" . 8.77 µM

And "CS(=O)(=O)c1cccc(-c2ccc3nc(N)n(-c4ccc(C(F)(F)F)cc4)c(=O)c3c2)c1" ? > 100 µM

And CNc1nc2ccc(-c3cccc([S+](C)[O-])c3)cc2c(=O)n1-c1ccc(C(F)(F)F)cc1 (stereo not shown) ? > 50 µM

And "Nc1nc2ccc(-c3cncnc3)cc2c(=O)n1-c1ccc(C(F)(F)F)cc1" ? > 100 µM

And "Nc1nc2ccc(-c3cccc(C(=O)O)c3)cc2c(=O)n1-c1ccc(C(F)(F)F)cc1" ? > 100 µM

And "CN(C)c1cccc(-c2ccc3nc(N)n(-c4ccc(C(F)(F)F)cc4)c(=O)c3c2)c1" ? > 100 µM

And "Nc1nc2ccc(-c3cccc(C(F)(F)F)c3)cc2c(=O)n1-c1ccc(C(F)(F)F)cc1" ? > 100 µM

====

So I've got a bunch of compounds here, and I need their clearance values.
assay: in vivo; set-up: species or system C57/BL6 mice; settings: C57/BL6, in vivo; mouse, iv 5 mg/kg; read-out: CLtotal
State just the number; it will be interpreted in mL/min/kg.

Give the measured clearance of C[S+]([O-])c1cccc(-c2ccc3nc(N)n(-c4ccc(C(F)(F)F)cc4)c(=O)c3c2)c1 (centres unmarked) [compound 2] . 21.8

And CS(=O)(=O)c1cccc(-c2ccc3nc(N)n(-c4ccc(C(F)(F)F)cc4)c(=O)c3c2)c1 [compound 1] ? 1.3

====

format: in vitro ADME; conditions: rat liver microsomes
So I've got a bunch of compounds here, and I need their Metabolic Stability R (% Rem.) values.
State just the number; it will be interpreted in % Rem..

Give the measured Metabolic Stability R (% Rem.) of C[S+]([O-])c1cccc(-c2ccc3nc(N)n(-c4ccc(C(F)(F)F)nc4)c(=O)c3c2)c1 (stereo not shown) . 99

And C[S+]([O-])c1cccc(-c2ccc3c(=O)n(-c4ccc(C(F)(F)F)cc4)c(N)nc3c2)c1 (stereo not shown) ? 73

And CN(C)c1nc2ccc(-c3cccc([S+](C)[O-])c3)cc2c(=O)n1-c1ccc(C(F)(F)F)cc1 (stereo not shown) ? 86

And "CN(C)CCNC(=O)c1cccc(-c2ccc3nc(N)n(-c4ccc(C(F)(F)F)cc4)c(=O)c3c2)c1" ? 40

And COc1ccc(-n2c(N)nc3ccc(-c4cccc([S+](C)[O-])c4)cc3c2=O)cc1 (stereo not shown) ? 103

And "CN(C)c1nc2ccc(-c3cccc(S(C)(=O)=O)c3)cc2c(=O)n1-c1ccc(C(F)(F)F)cc1" ? 94

And "Cc1ccc(S(C)(=O)=O)cc1-c1ccc2nc(N)n(-c3ccc(C(F)(F)F)cc3)c(=O)c2c1" ? 86

Entry source: paper PMC7359024
